- Test system: HSkMC (human skeletal muscle cells)
- assay_notes: cytotoxicity call (relative viability < 0.9)
- assay_context: 10 µM
The whole screen tested about 39,000 compounds, of which about 1,500 (3.8%) were called active. What follows is part of a selection rich in actives, with near analogues and random picks from the rest.
A correct response names exactly one class from active, inactive

Worked cases, answers included:
>  <compound>
C[C@@H]1CCCCO[C@@H](CN(C)C(=O)Nc2cccc3ccccc23)[C@H](C)CN([C@H](C)CO)C(=O)c2cc(NS(=O)(=O)c3cccs3)ccc2O1

>  <measured_on>
HSkMC

>  <category_label>
inactive

$$$$
>  <compound>
Cc1noc(C)c1NC(=O)Nc1ccc2c(c1)C(=O)N([C@@H](C)CO)C[C@H](C)[C@H](CN(C)C(=O)Nc1ccccc1)OCCCC[C@H](C)O2

>  <measured_on>
HSkMC

>  <category_label>
inactive

$$$$
>  <compound>
CC[C@@H](C)NCCCCOc1ccc(Cl)cc1C(C)(C)C

>  <measured_on>
HSkMC

>  <category_label>
active

$$$$

For "C[C@@H]1CN([C@H](C)CO)C(=O)c2cccc(NC(=O)c3ccc(-c4nccs4)cc3)c2O[C@H]1CN(C)C(=O)Nc1ccccc1" , what call appears in the results of this test? inactive

Hi, do you know how "O=C(C[C@H]1C=C[C@@H](NC(=O)c2cccc(F)c2)[C@H](CO)O1)NCCN1CCCC1" came out in this test? inactive
